Recorded values, source ChEMBL document CHEMBL1201862.

Tested on: BT-549
Assay: NCI tumour cell line growth inhibition, 48 h
Active and inactive are the calls of the source. Rule as the data show it: active = GI50 up to about 1.1 µM and inactive = higher.
Permitted responses: true (1) (active), false (0) (inactive)

Compound: Nc1nc(Cl)c(/C=N\O)c(NCC2(CO)CCC2)n1
Category label: false (0)
--
Compound: Cc1ccc(S(=O)(=O)NC(=O)NC(CC(=O)O)C(=O)O)cc1 (stereo unspecified)
Category label: false (0)
--
Compound: O=c1c2ccc(S(=O)(=O)c3ccc4c(=O)n5c6ccccc6nc5c5cccc3c45)c3cccc(c32)c2nc3ccccc3n12
Category label: false (0)
--
Compound: O=S1(=O)C(c2ccccc2)=C(O)c2ccccc21
Category label: false (0)
--
Compound: O=C1C=CC2(C=C1)O[C@H](Cc1ccccc1)[C@@H](Cc1ccccc1)O2
Category label: true (1)
--
Compound: C[C@@H]1[C@H](O)CC2=C(CC[C@@H](O)C2(C)C)[C@@]1(CO)CCc1ccoc1
Category label: false (0)
--
Compound: O=C1C(Cl)=C(N[C@@H](Cc2ccccc2)C(=O)OCc2ccccc2)C(=O)c2c(O)ccc(O)c21
Category label: false (0)
--
Compound: O=C1CCCCCCCCCCC1CN1CCOCC1 (stereo unspecified)
Category label: false (0)

Could you check what this test reported for O=c1[nH]c(-c2ccccc2)nc2c1sc1nc3ccccc3n12 ?
false (0)

Given Nc1[nH]c(Nc2ccc(Cl)c(Cl)c2)nc2ncnc1-2 , state the outcome it received in this test.
false (0)

State the result this test recorded for CC(=O)c1ccccc1NS(=O)(=O)c1ccc2nc(C)n(NS(=O)(=O)c3ccccc3C(C)=O)c(=O)c2c1 .
false (0)

Called result for C=CCC1(OCc2ccccc2)C(=O)C(=O)OC1C1COC(C)(C)O1 (stereo unspecified)
false (0)

Each compound tested received a call. Report the one for CC[C@@]1(O)C(=O)OCc2c1cc1n(c2=O)Cc2c-1nc1ccccc1c2/C=N\NC(=O)C(N)CO (stereo partly specified) .
false (0)
